target.of.assay: Ba/F3-EGFR-D770_N771insSVD cells (Homo sapiens, UniProt P00533, DUP768-770, cells depend on it)
Sequence (P00533 with tags, fused parts or gaps DUP768-770): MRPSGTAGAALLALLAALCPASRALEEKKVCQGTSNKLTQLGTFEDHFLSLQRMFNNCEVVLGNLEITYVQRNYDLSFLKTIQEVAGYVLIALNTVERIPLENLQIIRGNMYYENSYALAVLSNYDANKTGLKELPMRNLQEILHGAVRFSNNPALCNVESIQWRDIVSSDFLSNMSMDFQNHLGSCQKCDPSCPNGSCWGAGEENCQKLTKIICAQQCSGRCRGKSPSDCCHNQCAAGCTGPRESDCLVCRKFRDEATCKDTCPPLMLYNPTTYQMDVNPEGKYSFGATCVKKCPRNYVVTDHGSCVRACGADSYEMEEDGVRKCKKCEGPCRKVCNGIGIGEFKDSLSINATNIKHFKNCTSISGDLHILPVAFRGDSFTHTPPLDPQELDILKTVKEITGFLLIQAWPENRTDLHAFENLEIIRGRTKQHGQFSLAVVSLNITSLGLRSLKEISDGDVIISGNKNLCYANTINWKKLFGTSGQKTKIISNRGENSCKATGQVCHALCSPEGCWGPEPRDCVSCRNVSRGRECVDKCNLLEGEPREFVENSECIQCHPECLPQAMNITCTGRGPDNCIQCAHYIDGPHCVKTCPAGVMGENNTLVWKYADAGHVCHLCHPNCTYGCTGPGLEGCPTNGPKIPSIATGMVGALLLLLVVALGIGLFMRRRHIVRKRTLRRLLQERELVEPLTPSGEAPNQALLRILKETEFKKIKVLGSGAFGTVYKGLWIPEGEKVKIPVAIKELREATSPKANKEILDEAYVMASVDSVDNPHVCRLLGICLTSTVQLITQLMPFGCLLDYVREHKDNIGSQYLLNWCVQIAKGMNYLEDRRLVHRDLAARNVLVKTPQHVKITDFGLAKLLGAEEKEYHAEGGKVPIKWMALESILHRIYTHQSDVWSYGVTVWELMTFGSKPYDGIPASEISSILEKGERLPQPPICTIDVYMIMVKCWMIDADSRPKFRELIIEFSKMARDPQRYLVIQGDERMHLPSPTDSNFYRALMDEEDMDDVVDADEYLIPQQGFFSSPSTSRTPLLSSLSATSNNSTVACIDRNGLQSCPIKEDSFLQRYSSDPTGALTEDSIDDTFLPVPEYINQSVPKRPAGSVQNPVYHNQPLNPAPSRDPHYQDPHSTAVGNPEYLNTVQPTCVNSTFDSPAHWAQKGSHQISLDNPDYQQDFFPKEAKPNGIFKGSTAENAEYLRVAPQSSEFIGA
experimental.details: Ba/F3 cell survival assay, EGFR D770_N771insSVD
Type: cell-based
condition.summary: Cell Titer-Glo, 48 h, without IL-3; Table 4; read-out: BA/F3 (insSVD) IC50
quantity.name: GI50

Known GI50 results, listed for orientation:
[
  {
    "compound": "COc1c(Cl)cccc1Nc1c(-c2ccncc2OCC2(C)CCO2)[nH]c2c1C(=O)NCC2CCO (stereo not drawn) [Example 19]",
    "GI50": "86.5 nM"
  },
  {
    "compound": "COc1c(Cl)cccc1Nc1c(-c2ccncc2OCC2COCCO2)[nH]c2c1C(=O)NCC2C (single isomer, unassigned) [Example 37]",
    "GI50": "149 nM"
  }
]

Consider now this further compound.
Lookup: Supply measured GI50 of COCC(C)Oc1cnccc1-c1[nH]c2c(c1Nc1cccc(Cl)c1OC)C(=O)N[C@@H]1CCC[C@H]21 (single isomer, unassigned) [Example 51] in your reply.
Found: 13.6 nM
